These measurements were taken from patent US20200157212A1.

Parameter: Fold Selectivity for RSK/KSR. Scope: all listed entries.
target: T1, Human ROBO1 RSK mutant overexpressed on HEK293 cells (human, UniProt Q9Y6N7 26-1651); experiment: flow cytometry, Geo MFI ROBO1-RSK/ROBO2-KSR HEK293 cells, 2.5 µg/ml
T1 construct: K137R and R139K already in the entry; also called ROBO1-RSK cells
T1 sequence (Q9Y6N7 other isoform, or with tags, fused parts or gaps mutant limits assumed): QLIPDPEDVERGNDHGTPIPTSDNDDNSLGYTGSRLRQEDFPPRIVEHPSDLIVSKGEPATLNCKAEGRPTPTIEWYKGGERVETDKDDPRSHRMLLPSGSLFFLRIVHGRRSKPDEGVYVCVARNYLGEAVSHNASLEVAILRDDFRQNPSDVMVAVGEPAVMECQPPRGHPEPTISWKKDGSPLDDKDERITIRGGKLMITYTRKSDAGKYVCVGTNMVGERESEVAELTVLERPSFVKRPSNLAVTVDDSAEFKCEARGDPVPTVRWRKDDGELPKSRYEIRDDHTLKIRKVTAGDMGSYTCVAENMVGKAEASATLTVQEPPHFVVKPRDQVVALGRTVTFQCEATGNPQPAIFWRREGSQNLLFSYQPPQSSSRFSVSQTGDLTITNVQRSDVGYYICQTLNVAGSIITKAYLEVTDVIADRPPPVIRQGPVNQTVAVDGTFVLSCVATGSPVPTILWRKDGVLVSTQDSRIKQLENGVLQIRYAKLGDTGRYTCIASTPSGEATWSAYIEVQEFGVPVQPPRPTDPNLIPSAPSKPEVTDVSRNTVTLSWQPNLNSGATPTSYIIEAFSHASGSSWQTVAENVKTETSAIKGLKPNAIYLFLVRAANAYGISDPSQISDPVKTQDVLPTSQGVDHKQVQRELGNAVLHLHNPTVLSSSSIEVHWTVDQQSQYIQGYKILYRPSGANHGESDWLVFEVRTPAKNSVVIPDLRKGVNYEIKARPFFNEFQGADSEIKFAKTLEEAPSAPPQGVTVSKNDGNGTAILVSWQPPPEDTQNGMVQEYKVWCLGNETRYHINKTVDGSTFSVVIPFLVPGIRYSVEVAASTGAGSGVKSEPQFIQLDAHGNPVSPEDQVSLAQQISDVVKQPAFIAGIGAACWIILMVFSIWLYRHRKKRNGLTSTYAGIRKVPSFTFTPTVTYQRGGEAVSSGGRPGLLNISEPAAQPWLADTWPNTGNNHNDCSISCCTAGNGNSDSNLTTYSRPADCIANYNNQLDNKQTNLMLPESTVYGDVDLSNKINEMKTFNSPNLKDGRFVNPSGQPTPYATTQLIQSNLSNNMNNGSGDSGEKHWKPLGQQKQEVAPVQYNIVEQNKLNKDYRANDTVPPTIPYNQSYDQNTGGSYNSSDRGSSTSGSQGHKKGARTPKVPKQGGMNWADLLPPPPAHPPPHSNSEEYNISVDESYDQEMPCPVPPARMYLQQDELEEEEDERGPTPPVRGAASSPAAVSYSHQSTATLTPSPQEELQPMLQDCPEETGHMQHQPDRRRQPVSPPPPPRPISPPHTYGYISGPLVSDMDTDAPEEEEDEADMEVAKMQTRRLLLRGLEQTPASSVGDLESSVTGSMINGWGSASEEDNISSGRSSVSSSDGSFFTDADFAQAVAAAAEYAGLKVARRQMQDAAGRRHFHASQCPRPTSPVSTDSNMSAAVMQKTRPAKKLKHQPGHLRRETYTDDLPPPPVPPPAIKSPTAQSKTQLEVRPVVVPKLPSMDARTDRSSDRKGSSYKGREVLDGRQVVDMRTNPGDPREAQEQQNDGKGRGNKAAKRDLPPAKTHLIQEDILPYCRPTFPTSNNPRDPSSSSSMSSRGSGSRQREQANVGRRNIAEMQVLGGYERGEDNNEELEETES

CTIR2-14 (antibody, human IgG1, kappa, V domains shown, CDR-shuffled IgG) VH: EVQLVQSGAEVKKPGASVKVSCKASGYTFRGYAMHWVRQAPGQGLEWMGWIDPRTGLTKFPQKFQGRVTMTRDTSITTAYMDLSRLRSDDTAVYYCARESGDDAFDIWGQGTMVTVSS VL: DIVMTQSPSSLSASVGDRVTITCRASQKISSYLNWYQQKPGKAPKLLIYAASSLQYGVPSRFSGSGSGTDFTLTISSLQPEDFATYYCQQSLELGFGGGTKVEIKR ... > 100 fold
CTIR2-6 (antibody, human IgG1, kappa, V domains shown, CDR-shuffled IgG) VH: EVQLVQSGAEVKKPGASVKVSCKASGYTFTGYYMHWVRQAPGQGLEWMGWINPKSGATNFPQKFQGRVTMTRDTSITTAYMDLSRLRSDDTAVYYCARESGDDAFDIWGQGTMVTVSS VL: DIVMTQSPSSLSASVGDRVTITCRASQKISSYLNWYQQKPGKAPKLLIYAASSLQSGVPSRFSGSGSGTDFTLTISSLQPEDFATYYCQQSVGLFFGGGTKVEIKR ... > 100 fold

Could you now consider this next binder?
Q. May I ask what Fold Selectivity for RSK/KSR has been recorded for Abcs12 (antibody, human IgG1, kappa, V domains shown, chain-shuffled IgG; also called Abes12) VH: EVQLVQSGAEVKKPGASVKVSCKASGYTFTGYYMHWVRQAPGQGLEWMGWINPRNGITSFPQKFQGRVTMTRDTSITTAYMDLSRLRSDDTAVYYCARESGDDAFDIWGQGTMVTVSS VL: DIVMTQSPSSLSASVGDRVTITCRASQSISSYLNWYQQKPGKAPKLLIYAASSLQSGVPSRFSGSGSGTDFTLTISSLQPEDFATYYCQQSLELGFGGGTKVEIKR ?
A. > 100 fold
